- Assay Target: UniProt:P28223
- Sequence (P28223 whole entry): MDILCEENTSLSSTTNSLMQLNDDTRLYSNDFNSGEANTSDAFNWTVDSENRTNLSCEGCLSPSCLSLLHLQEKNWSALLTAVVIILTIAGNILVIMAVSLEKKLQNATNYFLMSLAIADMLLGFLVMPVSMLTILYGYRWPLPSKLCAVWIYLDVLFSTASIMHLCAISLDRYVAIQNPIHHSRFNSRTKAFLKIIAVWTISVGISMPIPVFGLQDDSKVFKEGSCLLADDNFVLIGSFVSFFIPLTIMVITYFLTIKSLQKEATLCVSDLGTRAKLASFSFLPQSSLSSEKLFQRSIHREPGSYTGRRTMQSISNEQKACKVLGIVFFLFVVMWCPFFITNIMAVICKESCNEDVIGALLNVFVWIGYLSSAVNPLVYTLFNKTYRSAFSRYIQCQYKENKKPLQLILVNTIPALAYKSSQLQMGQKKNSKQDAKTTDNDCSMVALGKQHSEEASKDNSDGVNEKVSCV
- Test Description: biochemical
- Assay type: binding
- Experimental Parameters: [3H]-ketanserin displacement, cell membrane, 27° C., 90 min; read-out: h5-HT2A, IC50
Property: IC50 (nM)
# output: bare number, implied unit nM

Query (molecule): `CN(C)CCc1c[nH]c2ccccc12` ; field requested: IC50
954

###

# Remaining Percentage annotations
- Test Description: Liver microsomes stability, rat
- Assay type: in vitro ADME
- Experimental Parameters: rat liver microsomes, Without Cofactors, 60 min
Field format: number, assumed %, no unit text.

Example cases with answers are listed next.
Compound	Measurement Units	Readout Number
[2H]C([2H])(c1c[nH]c2ccc(OCCCCCN3C(=O)C4CCCCC4C3=O)cc12)[C@H]1CCCN1C([2H])([2H])[2H] (mixture of isomers) [Rac (R) I-248]	%	94.04
O=C(O)Cc1ccccc1Nc1c(Cl)cccc1Cl [Diclofenac]	%	100.63
[2H]C([2H])(c1c[nH]c2ccc(OCCCCN3C(=O)c4ccccc4C3=O)cc12)[C@H]1CCCN1C([2H])([2H])[2H] [(R) I-244]	%	87.40
COCCN1CCC[C@@H]1Cc1c[nH]c2ccc(OC)cc12 [(R) I-98]	%	103.23
[2H]C([2H])(c1c[nH]c2ccc(OCCCCCN3C(=O)c4ccccc4C3=O)cc12)[C@H]1CCCN1C([2H])([2H])[2H] [(R) I-245]	%	94.10

Attention now shifts to the item below.
# Remaining Percentage lookup, item COc1ccc2[nH]cc(CCN(C)C)c2c1 [5-MeO-DMT]
23.82
